- Target entity: AKRtyl (Streptomyces xinghaiensis, UniProt A0A3R7J519)
Attribute measured: Kd
Write the numeric value and append its unit.

Problem: Entry under review: `NC(=O)C1=CN([C@@H]2O[C@H](COP(=O)(O)OP(=O)(O)OC[C@H]3O[C@@H](n4cnc5c(N)ncnc54)[C@H](OP(=O)(O)O)[C@@H]3O)[C@@H](O)[C@H]2O)C=CC1` . Reported Kd?
Result: 0.45 µM
